- assayedSystem: UniProt P29990
- assayDetails: Inhibition of NS2B-NS3 protease in DENV2proHeLa system assessed as inhibition of luciferase signal incubated for 24 hrs by luciferase reporter gene assay
measurementType: EC50 (µM)

> print(dat)
                             moleculesmiles  measurementtype  unitsymbol   val
1  CCCCCC(=O)N[C@H](C(=O)NCc1ccc(NC(C)=O)cc1)c1ccc(OCc2ccccc2)cc1             EC50          µM    14
2  CCCCCC(=O)N[C@H](C(=O)Nc1cccc(C(N)=O)c1)c1ccc(OCc2c(Cl)cccc2Cl)cc1             EC50          µM   2.4
3  Cc1ccc(C(=O)c2cc(O)c(O)c([N+](=O)[O-])c2)cc1             EC50          µM   7.1
4  NC(=O)c1cccc(NC(=O)[C@@H](NC(=O)c2ccc(Oc3ccc(Cl)cc3)cc2)c2ccc(OCc3ccccc3)cc2)c1             EC50          µM  0.58

* * *

- assayedSystem: Trypsin (Homo sapiens) (UniProt P07477+P07478+P35030)
- assayDetails: Inhibition of trypsin (unknown origin) using Boc-Val-Pro-Arg-AMC as substrate at 50 uM preincubated with enzyme for 15 mins followed by substrate addition and measured for 15 mins by fluorimetric assay
- Type: protein assay
- setupConditions: time 30.0 min
Calls of active or inactive are those of the source. No rule for the calls is given here.
measurementType: inhibition

> print(dat)
                                    compound                             assayedsystem       val
 1  NC(=O)c1cccc(NC(=O)[C@@H](NC(=O)c2ccc(Oc3ccc(C(F)(F)F)cc3)cc2)c2ccc(OCc3ccccc3)cc2)c1  Trypsin (Homo sapiens) (UniProt P07477+P07478+P35030)  inactive
 2  CCCCCC(=O)N[C@H](C(=O)Nc1ccc(OC)cc1)c1ccc(OCc2ccccc2)cc1  Trypsin (Homo sapiens) (UniProt P07477+P07478+P35030)  inactive
 3  CCCCCC(=O)N[C@H](C(=O)NCc1ccc(OC)cc1)c1ccc(OCc2ccccc2)cc1  Trypsin (Homo sapiens) (UniProt P07477+P07478+P35030)  inactive
 4  NC(=O)c1ccc(CNC(=O)[C@@H](NC(=O)c2cc3ccccc3s2)c2ccc(OCc3ccccc3)cc2)cc1  Trypsin (Homo sapiens) (UniProt P07477+P07478+P35030)  inactive
 5  CCCCCC(=O)N[C@@H](C(=O)NCc1ccc(C(N)=O)cc1)c1ccc(OCc2ccccc2)cc1  Trypsin (Homo sapiens) (UniProt P07477+P07478+P35030)  inactive
 6  CCCCCC(=O)N[C@H](C(=O)Nc1ccc(S(N)(=O)=O)cc1)c1ccc(OCc2ccccc2)cc1  Trypsin (Homo sapiens) (UniProt P07477+P07478+P35030)  inactive
 7  CCCCCC(=O)N[C@H](C(=O)NCc1ccc(C(N)=O)cc1)c1ccc(OCc2ccccc2)cc1  Trypsin (Homo sapiens) (UniProt P07477+P07478+P35030)  inactive
 8  CCCCCC(=O)N[C@H](C(=O)NCc1ccc(C(N)=O)cc1)c1ccc(C(F)(F)F)cc1  Trypsin (Homo sapiens) (UniProt P07477+P07478+P35030)  inactive
 9  NC(=O)c1ccc(CNC(=O)[C@@H](NC(=O)Cc2ccc(-c3ccccc3)cc2)c2ccc(OCc3ccccc3)cc2)cc1  Trypsin (Homo sapiens) (UniProt P07477+P07478+P35030)  inactive
10  CCCCCC(=O)N[C@H](C(=O)NCc1ccc(C(=O)NO)cc1)c1ccc(OCc2ccccc2)cc1  Trypsin (Homo sapiens) (UniProt P07477+P07478+P35030)  inactive
11  COc1cccc(COc2ccc([C@H](NC(=O)c3ccc(Oc4ccccc4)cc3)C(=O)Nc3cccc(C(N)=O)c3)cc2)c1  Trypsin (Homo sapiens) (UniProt P07477+P07478+P35030)  inactive
12  CCCCCCC(=O)N[C@H](C(=O)NCc1ccc(C(N)=O)cc1)c1ccc(OCc2ccccc2)cc1  Trypsin (Homo sapiens) (UniProt P07477+P07478+P35030)  inactive
13  CCCCCC(=O)N[C@H](C(=O)NCc1ccc(C(N)=O)cc1)c1ccc(OCc2ccc(C(C)(C)C)cc2)cc1  Trypsin (Homo sapiens) (UniProt P07477+P07478+P35030)  inactive
14  CCCCCC(=O)N[C@H](C(=O)NCc1ccccc1)c1ccc(OCc2ccccc2)cc1  Trypsin (Homo sapiens) (UniProt P07477+P07478+P35030)  inactive
15  NC(=O)c1ccc(CNC(=O)[C@@H](NC(=O)c2ccc(Oc3ccccc3)cc2)c2ccc(OCc3ccccc3)cc2)cc1  Trypsin (Homo sapiens) (UniProt P07477+P07478+P35030)  inactive
16  NC(=O)c1cccc(NC(=O)[C@@H](NC(=O)c2ccc(Oc3cccc4c3C(=O)CC4)cc2)c2ccc(OCc3ccccc3)cc2)c1  Trypsin (Homo sapiens) (UniProt P07477+P07478+P35030)  inactive
17  CCCCCC(=O)N[C@@H](Cc1ccccc1)C(=O)NCc1ccc(C(N)=O)cc1  Trypsin (Homo sapiens) (UniProt P07477+P07478+P35030)  inactive
18  NC(=O)c1cccc(NC(=O)[C@@H](NC(=O)c2ccc(C(=O)N3CCOCC3)cc2)c2ccc(OCc3ccccc3)cc2)c1  Trypsin (Homo sapiens) (UniProt P07477+P07478+P35030)  inactive
19  CCCCCC(=O)N[C@H](C(=O)NCc1ccc(C(N)=O)cc1)c1ccc(OCc2ccc(C(F)(F)F)cc2)cc1  Trypsin (Homo sapiens) (UniProt P07477+P07478+P35030)  inactive
20  CCCCCCN[C@H](C(=O)NCc1ccc(C(N)=O)cc1)c1ccc(OCc2ccccc2)cc1  Trypsin (Homo sapiens) (UniProt P07477+P07478+P35030)  inactive
21  NC(=O)c1cccc(NC(=O)[C@@H](NC(=O)c2ccc(Oc3ccc4c(c3)OCCO4)cc2)c2ccc(OCc3ccccc3)cc2)c1  Trypsin (Homo sapiens) (UniProt P07477+P07478+P35030)  inactive
22  CCCCCCCS(=O)(=O)N[C@H](C(=O)NCc1ccc(C(N)=O)cc1)c1ccc(OCc2ccccc2)cc1  Trypsin (Homo sapiens) (UniProt P07477+P07478+P35030)  inactive
23  NC(=O)c1ccc(CNC(=O)[C@@H](NC(=O)c2ccc(-c3cccs3)s2)c2ccc(OCc3ccccc3)cc2)cc1  Trypsin (Homo sapiens) (UniProt P07477+P07478+P35030)  inactive
24  CCCCCC(=O)N[C@H](C(=O)Nc1cccc(C(N)=O)c1)c1ccc(OCc2ccccc2)cc1  Trypsin (Homo sapiens) (UniProt P07477+P07478+P35030)  inactive
25  CCCCCC(=O)N[C@H](C(=O)NCCc1ccccc1)c1ccc(OCc2ccccc2)cc1  Trypsin (Homo sapiens) (UniProt P07477+P07478+P35030)  inactive
26  NC(=O)c1ccc(CNC(=O)[C@@H](NC(=O)c2cccs2)c2ccc(OCc3ccccc3)cc2)cc1  Trypsin (Homo sapiens) (UniProt P07477+P07478+P35030)  inactive
27  NC(=O)c1ccc(CNC(=O)[C@@H](NC(=O)c2ccc(OCc3ccccc3)cc2)c2ccc(OCc3ccccc3)cc2)cc1  Trypsin (Homo sapiens) (UniProt P07477+P07478+P35030)  inactive
28  NC(=O)c1cccc(NC(=O)[C@@H](NC(=O)C2CCN(c3ccccc3)CC2)c2ccc(OCc3ccccc3)cc2)c1  Trypsin (Homo sapiens) (UniProt P07477+P07478+P35030)  inactive
29  CCCCCC(=O)N[C@H](C(=O)NCC1CCC(C(N)=O)CC1)c1ccc(OCc2ccccc2)cc1 (stereo partly drawn)  Trypsin (Homo sapiens) (UniProt P07477+P07478+P35030)  inactive
30  CCCCCC(=O)N[C@H](C(=O)NCc1ccc(C(N)=O)cc1)c1ccc(OCc2c(Cl)cccc2Cl)cc1  Trypsin (Homo sapiens) (UniProt P07477+P07478+P35030)  inactive
31  NC(=O)c1cccc(NC(=O)[C@@H](NC(=O)c2ccc(-c3ccccc3)cc2)c2ccc(OCc3ccccc3)cc2)c1  Trypsin (Homo sapiens) (UniProt P07477+P07478+P35030)  inactive
32  CCCCCC(=O)N[C@H](C(=O)NCc1cccc(OC)c1)c1ccc(OCc2ccccc2)cc1  Trypsin (Homo sapiens) (UniProt P07477+P07478+P35030)  inactive
33  NC(=O)c1cccc(NC(=O)[C@@H](NC(=O)c2ccc(Oc3ccccc3)cc2)c2ccc(OCc3ccccc3)cc2)c1  Trypsin (Homo sapiens) (UniProt P07477+P07478+P35030)  inactive
